# Tested on: Rab7 GTPase wild type (dog), Bodipy-FL-GTP binding
# test name: modulators of GTP binding to Rab7, primary screen, biochemical, wildtype, multiplex bead flow cytometry (AID 758);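 also: median green fluorescence of bound Bodipy-FL-GTP per Rab7 bead population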
# condition context: GST-Rab7 beads, fluorescent GTP binding, at 10 µM, actives lie on both sides, untreated = 100%, excess cold GTP = 0%
The campaign covered roughly 190,000 compounds. About 110 (0.058%) were called active. Another 2% or so got no clear call; they are omitted. What follows is part of a selection rich in actives, with near analogues and random picks from the rest.
Property: GTP binding activity (percent of control); scope: individual molecules
endpoint label: GTP binding activity (percent of control)

>  <molecule>
Cc1ccc(CN2CCN(Cc3ccc(OCCO)cc3)CC2CCO)o1 (stereo unspecified)

>  <result>
104% (inactive)

$$$$
>  <molecule>
CC1CCN(S(=O)(=O)c2ccc(S(=O)(=O)NCc3cccnc3)cc2)CC1

>  <result>
98% (inactive)

$$$$
>  <molecule>
CC(C)(C)c1cnnn1-c1ccc([N+](=O)[O-])cc1

>  <result>
94% (inactive)

$$$$
>  <molecule>
O=C(Nc1ccccc1F)c1ccccc1-c1ccc(C(F)(F)F)cc1

>  <result>
103% (inactive)

$$$$
>  <molecule>
Cc1ccccc1-n1nc(SCC(=O)O)sc1=S

>  <result>
99% (inactive)

$$$$
>  <molecule>
CCCNC(=O)c1c(Cl)cnn1-c1ccc(C)cc1

>  <result>
96% (inactive)

$$$$
>  <molecule>
CCN(CC)C(=O)N(CC)Cc1ccccc1

>  <result>
96% (inactive)

$$$$
>  <molecule>
O=C(Nc1ccccc1F)c1ccccc1-c1ccccc1

>  <result>
74% (active)

$$$$
>  <molecule>
CSc1cccc(NC(=S)N(Cc2ccccc2)Cc2ccccn2)c1

>  <result>
104% (inactive)

$$$$
>  <molecule>
CN(C)c1nc(N)nc(Cn2nnc(-c3ccc(C(F)(F)F)cc3)n2)n1

>  <result>
104% (inactive)

$$$$
>  <molecule>
COc1cc2[nH]c(=O)n(Cc3ccc(C(=O)NC4CCN(Cc5ccccc5)CC4)cc3)c(=O)c2cc1OC

>  <result>
104% (inactive)

$$$$
